So I've got a bunch of compounds here, and I need their log10 of MIC values.
- Test system: Mycobacterium tuberculosis H37Rv
- experiment-notes: GSK_TB: Minimum inhibitory concentration against H37Rv stain of Mycobacterium tuberculosis using MABA method
- Format: functional
- test-conditions: ATCC25618
Quick note: numbers are log10 of MIC, with µM as the unit.

log10 of MIC recorded for this compound, O=C(NCc1ccoc1)N1CCN(Cc2ccc3c(c2)OCO3)CC1 , is 0.10

log10 of MIC recorded for this compound, Fc1ccc(Cc2nnc(-c3ccnc(Nc4ccc(OCCN5CCOCC5)cc4)n3)[nH]2)cc1 , is 0.75

log10 of MIC recorded for this compound, NCC(c1cccs1)S(=O)(=O)c1ccccc1 (centres undefined) , is 0.30

log10 of MIC recorded for this compound, N#Cc1cc(C(F)(F)F)c2nc(C(=O)NCc3cccs3)c(Cl)n2c1 , is 1.00

log10 of MIC recorded for this compound, CNc1snc(C)c1C(=O)NCCOc1ccc(OC)cc1 , is 0.40

log10 of MIC recorded for this compound, O=[N+]([O-])c1cnc(-c2nc3ccccc3[nH]2)s1 , is 0.64

log10 of MIC recorded for this compound, CC(C)N(C(=O)CNc1ccccc1Nc1ccccc1)c1ccccc1 , is 0.75

log10 of MIC recorded for this compound, COc1ccc(Nc2ncccc2N)cc1 , is 0.75

log10 of MIC recorded for this compound, N#Cc1cccc(-c2ccc(NC[C@H]3CC[C@]4(CC3)CN(c3cccnn3)C(=O)O4)nc2)c1 , is 1.00

log10 of MIC recorded for this compound, Nc1ccc(C(O)CNCCc2ccccc2)cc1O (centres undefined) , is 0.46

log10 of MIC recorded for this compound, COC(=O)c1ccc(Oc2ccc(-c3csc(C)n3)cc2F)nn1 , is 0.75

log10 of MIC recorded for this compound, CCOCn1ccc(NS(=O)(=O)c2ccc(N)cc2)nc1=O , is 0.67

log10 of MIC recorded for this compound, O=C(NCCO)c1c(O)c2ncc(Cc3ccc(F)cc3C(F)(F)F)cc2[nH]c1=O , is 0.88

log10 of MIC recorded for this compound, CCCCc1ccc(C(=O)Nc2nnc(S(=O)(=O)CCCC)s2)nc1 , is 1.00

log10 of MIC recorded for this compound, CC1CC1c1ccc(CN2CCc3nc(Nc4ccccc4)sc3CC2)o1 (centres undefined) , is 0.75

log10 of MIC recorded for this compound, NC(=O)c1cc2ccc(CC(=O)c3cccs3)cc2s1 , is 0.58

log10 of MIC recorded for this compound, CCOc1cc2ccccc2cc1C(=O)NC , is 1.00

log10 of MIC recorded for this compound, Cc1ccc2c(c1)c(=O)cc(C(F)(F)F)n2CCNC(=O)c1ccccn1 , is 1.00

log10 of MIC recorded for this compound, CN(Cc1ccc(Cl)cc1)C(=O)CCc1nc2ccccc2oc1=O , is 0.59

log10 of MIC recorded for this compound, O=S(=O)(NCc1ccccc1)c1ccc(-c2cc3ccncc3cc2OC2CCNCC2)s1 , is 0.40

log10 of MIC recorded for this compound, Nc1ccccc1Nc1ccc(Cl)cc1 , is 0.30

log10 of MIC recorded for this compound, Fc1cccc(Oc2cc(C3CCCNC3)nc(-c3ccncc3)n2)c1 (centres undefined) , is 1.00

log10 of MIC recorded for this compound, COc1ccc(CCNC(=O)C2(n3cnnn3)CCCCC2)cc1 , is 0.90

log10 of MIC recorded for this compound, COc1ccc2nccc(NC(=O)C3CCN(CCc4ccc(Cl)cc4)CC3)c2n1 , is -0.70

* * *

So I've got a bunch of compounds here, and I need their MIC values.
- Tested on: Mycobacterium tuberculosis H37Rv
- experiment-notes: GSK_TB: Minimum inhibitory concentration against H37Rv stain of Mycobacterium tuberculosis using MABA method
- Type: functional
- test-conditions: ATCC25618
Write the value in µM as a bare number.

Sample Cc1c(C(=O)NCCOc2ccccc2)[nH]c2c1C(=O)CCC2 , system: Mycobacterium tuberculosis H37Rv. Its MIC is 10

Sample CCCC/C=C/c1cc2ccncc2cc1OC1CCNCC1 , system: Mycobacterium tuberculosis H37Rv. Its MIC is 1.6

Sample Nc1ccc(S(=O)(=O)Nc2ccnn2-c2ccccc2)cc1 , system: Mycobacterium tuberculosis H37Rv. Its MIC is 10

Sample Cn1cc(CCNC(=O)Nc2ccc(N3CCCCC3)nc2)cn1 , system: Mycobacterium tuberculosis H37Rv. Its MIC is 5

Sample O=C(Nc1nc(-c2ccccn2)cs1)N1CCC(Cc2ccc(F)cc2)CC1 , system: Mycobacterium tuberculosis H37Rv. Its MIC is 10

Sample FC(F)(F)Oc1ccc(-c2cc3ccncc3cc2OC2CCNCC2)cc1 , system: Mycobacterium tuberculosis H37Rv. Its MIC is 5

Sample O=C(NCc1ccco1)N1CCN(Cc2cccs2)CC1 , system: Mycobacterium tuberculosis H37Rv. Its MIC is 2.5

Sample COc1ccc(CN2CCN(C(=O)/C=C/c3csc(C)n3)CC2)cc1 , system: Mycobacterium tuberculosis H37Rv. Its MIC is 10

Sample FC(F)(F)c1nnc2ccc(Sc3nnc(-c4ccco4)o3)nn12 , system: Mycobacterium tuberculosis H37Rv. Its MIC is 5.6

Sample Cc1ccc2oc(SCC(=O)Nc3nccs3)nc2n1 , system: Mycobacterium tuberculosis H37Rv. Its MIC is 5.6

Sample NC(=O)c1ccc(CN(C2CC2)S(=O)(=O)c2ccccc2F)cc1 , system: Mycobacterium tuberculosis H37Rv. Its MIC is 3.75

Sample N#Cc1ncn(-c2ccc3nnc(C(F)(F)F)n3n2)n1 , system: Mycobacterium tuberculosis H37Rv. Its MIC is 5

Sample COc1ccc(Nc2nc(N[C@@H]3CCNC3)nc3cc[nH]c(=O)c23)cc1NC(=O)c1ccccc1 , system: Mycobacterium tuberculosis H37Rv. Its MIC is 5

Sample CC(C)c1noc(N2CCC([C@H](C)Oc3cnc(-c4ccc(S(C)(=O)=O)c(F)c4)cn3)CC2)n1 , system: Mycobacterium tuberculosis H37Rv. Its MIC is 6

* * *

- experiment-notes: GSK_TB: Lipophilicity, log D of the compound at pH 7.4 by ChromlogD analysis
- Type: physicochemical
- test-conditions: buffer
recorded-metric: Lipophilicity
API doc: respond with a numeric literal and nothing else, no unit.

Lipophilicity recorded for this compound, FC(F)(F)c1nnc2ccc(Sc3nnc(-c4ccco4)o3)nn12 , is 3.78

Lipophilicity recorded for this compound, O=C(NCc1ccoc1)N1CCN(Cc2ccc3c(c2)OCO3)CC1 , is 3.48

Lipophilicity recorded for this compound, COc1ccc(Nc2nc(N[C@@H]3CCNC3)nc3cc[nH]c(=O)c23)cc1NC(=O)c1ccccc1 , is 2.41

Lipophilicity recorded for this compound, O=C(NCc1ccco1)N1CCN(Cc2ccc3c(c2)CCO3)CC1 , is 3.47

Lipophilicity recorded for this compound, Cc1ccc2oc(SCC(=O)Nc3nccs3)nc2n1 , is 3.01

Lipophilicity recorded for this compound, O=C(O)CCc1nc2ccccc2oc1=O , is 0.04

* * *

- experiment-notes: GSK_TB: AVG_CHROM_LOGP
- Format: physicochemical
Threshold check on Lipophilicity: at or above 4 gives fulfilled, strictly below gives not fulfilled.

Please indicate if the recorded Lipophilicity for O=C(NCc1ccco1)N1CCN(Cc2cccs2)CC1 meets or exceeds 4.
not fulfilled

Please indicate if the recorded Lipophilicity for Cc1c(C(=O)NCCOc2ccccc2)[nH]c2c1C(=O)CCC2 meets or exceeds 4.
not fulfilled

Please indicate if the recorded Lipophilicity for O=C(NCc1ccco1)N1CCN(Cc2ccc3c(c2)CCO3)CC1 meets or exceeds 4.
not fulfilled

Please indicate if the recorded Lipophilicity for CCOc1cc2ccccc2cc1C(=O)NC meets or exceeds 4.
fulfilled

Please indicate if the recorded Lipophilicity for c1ccc(-c2ncc(-c3ccc(OCCCn4ccnc4)cc3)s2)cc1 meets or exceeds 4.
fulfilled

Please indicate if the recorded Lipophilicity for CNc1snc(C)c1C(=O)NCCOc1ccc(OC)cc1 meets or exceeds 4.
fulfilled

Please indicate if the recorded Lipophilicity for O=[N+]([O-])c1cnc(-c2nc3ccccc3[nH]2)s1 meets or exceeds 4.
fulfilled

Please indicate if the recorded Lipophilicity for CCCCNCC1COc2ccc(OC)cc2C1=O (stereo not drawn) meets or exceeds 4.
fulfilled

Please indicate if the recorded Lipophilicity for Cc1ccc2oc(SCC(=O)Nc3nccs3)nc2n1 meets or exceeds 4.
not fulfilled

Please indicate if the recorded Lipophilicity for COc1ccc(CCNC(=O)C2(n3cnnn3)CCCCC2)cc1 meets or exceeds 4.
not fulfilled

Please indicate if the recorded Lipophilicity for COc1ccc(Nc2ncccc2N)cc1 meets or exceeds 4.
not fulfilled

Please indicate if the recorded Lipophilicity for NC(=O)c1cc2ccc(CC(=O)c3cccs3)cc2s1 meets or exceeds 4.
not fulfilled

Please indicate if the recorded Lipophilicity for CC(C)Oc1ccc(-c2nnc(-c3ccc4c(c3)CCNCC4)s2)cc1Cl meets or exceeds 4.
fulfilled

* * *

- System: Mycobacterium tuberculosis H37Rv
- experiment-notes: GSK_TB: Minimum inhibitory concentration against H37Rv stain of Mycobacterium tuberculosis using MABA method
- Assay type: functional
- test-conditions: ATCC25618
So I've got a bunch of molecules here, and I need their MIC values.
Write the value in µM as a bare number.

MIC recorded for this molecule, CC(C)Oc1ccc(-c2nnc(-c3ccc4c(c3)CCNCC4)s2)cc1Cl , is 10

MIC recorded for this molecule, CNc1nc(SC)nnc1-c1cccc(Cl)c1Cl , is 2.5

MIC recorded for this molecule, O=C(O)CCc1nc2ccccc2oc1=O , is 8

MIC recorded for this molecule, COc1ccc(-c2nnc3sc(Cc4csc(C)n4)nn23)cc1 , is 2.5

MIC recorded for this molecule, CCCCNCC1COc2ccc(OC)cc2C1=O (configuration not stated) , is 5

MIC recorded for this molecule, Clc1nnc(N2CCCC2)c2ccccc12 , is 4

MIC recorded for this molecule, Cc1nc(Nc2cnn(Cc3ccccc3F)c2)c2nn(C)c(C)c2n1 , is 4

MIC recorded for this molecule, O=C(NCc1ccco1)N1CCN(Cc2ccc3c(c2)CCO3)CC1 , is 2

MIC recorded for this molecule, O=C(Nc1nc2c(s1)CCCc1cccnc1-2)c1ccccc1C(F)(F)F , is 3.7

MIC recorded for this molecule, NS(=O)(=O)c1ccc(Nc2cnc3ccccc3n2)cc1 , is 2

MIC recorded for this molecule, c1ccc(-c2ncc(-c3ccc(OCCCn4ccnc4)cc3)s2)cc1 , is 5

MIC recorded for this molecule, O=C(NCc1ccco1)N1CCN(Cc2ccc(Cl)s2)CC1 , is 2
